- System: CP217
- ASSAY: qHTS profiling for inhibitors of Plasmodium falciparum proliferation (AID 504749); note: nearly all actives have a fitted effect of over 60% in size; note: potency is the fitted concentration of half-maximal effect
- REPORTED CONDITIONS: P. falciparum in erythrocytes, SYBR Green DNA, 72 h; series mostly up to 28.7 µM
- Procedure: NIH National Institute of Allergy and Infectious Diseases [NIAID] NIH Chemical Genomics Center [NCGC] […] Because mature erythrocytes lack DNA, only Plasmodium-derived DNA is detected. NCGC Assay Protocol Summary: The SYBR Green viability assay was adapted from a method described previously (Plouffe et al., 2008). […] The following morning, fluorescence intensity at 485(14) nm excitation and 535(25) nm emission wavelengths was measured on an EnVision (Perkin Elmer) plate reader. […]
Inconclusive results are not listed. Active and inactive are the calls of the source. Calls come from the whole dose curve; as a rule, active = well fitted inhibition curve with a large enough effect; inconclusive = small, poorly fitted or top-dose-only effect; inactive = flat fitted curve, though single readings scatter.
QUANTITY: Potency

Below, each entry is followed by its recorded Potency result.
{"columns": ["COMPOUND", "QUANTITY", "DATA VALUE"],
 "data": [
  ["C/C(=C(/CCO)SS/C(CCO)=C(\\C)N(C=O)Cc1cnc(C)nc1N)N(C=O)Cc1cnc(C)nc1N", "Potency", "inactive"],
  ["O=[N+]([O-])O[C@H]1CO[C@H]2[C@@H]1OC[C@H]2O", "Potency", "inactive"],
  ["C[C@H]1[C@@H](OC(=O)CCC(=O)O)OC2OC3(C)CC[C@H]4[C@H](C)CC[C@@H]1[C@@]24OO3 (stereo partly specified)", "Potency", "0.0071 µM (active)"],
  ["C[C@]12CC[C@@H]3c4ccc(O)cc4C[C@@H](CCCCCCCCCS(=O)CCCC(F)(F)C(F)(F)F)C3[C@@H]1CC[C@@H]2O (stereo partly specified)", "Potency", "8.91 µM (active)"],
  ["C/C1=C2/[N-]C(C(CC(N)=O)[C@@]2(C)CCC(=O)NCC(C)OP(=O)([O-])O[C@H]2[C@@H](O)[C@@H](n3cnc4cc(C)c(C)cc43)O[C@@H]2CO)[C@]2(C)N=C(/C(C)=C3N=C(/C=C4N=C1C(CCC(N)=O)C\\4(C)C)[C@@H](CCC(N)=O)[C@]\\3(C)CC(N)=O)[C@@H](CCC(N)=O)[C@]2(C)CC(N)=O.CC(=O)O.[Co] (stereo partly specified)", "Potency", "inactive"]
]}

Next compound, please.
Find the recorded Potency belonging to CC1OC(OCC2OC(Oc3c(-c4ccc(OCCO)c(OCCO)c4)oc4cc(OCCO)cc(O)c4c3=O)C(O)C(O)C2O)[C@@H](O)C(O)C1O (stereo partly specified) and report it.
inactive

---

- TARGET OR SYSTEM: Cytochrome P450 2C19 (Homo sapiens)
- ASSAY: qHTS Assay for Inhibitors and Substrates of Cytochrome P450 2C19 (AID 899); note: nearly all actives have a fitted effect of over 60% in size
- REPORTED CONDITIONS: recombinant CYP2C19, luciferin-H EGE luminescence; series mostly up to 57.1 µM
Records with an inconclusive call do not appear. Activity calls are given as the source filed them. Calls come from the whole dose curve; as a rule, active = well fitted inhibition curve with a large enough effect; inconclusive = small, poorly fitted or top-dose-only effect; inactive = no such curve, though single readings can be large or run the other way.
Please reply with one of these outcomes: y (active), n (inactive)

Reference set (8 entries):
{"columns": ["MOLECULE", "CLASS NAME"],
 "data": [
  ["CC(C)[C@@H](CC(=O)N[C@@H]1CCCC[C@H]1C(=O)N[C@H](CC(=O)N[C@@H](CCC(=O)O)CC(=O)O)Cc1c[nH]c2ccccc12)NC(=O)C[C@H](Cc1c[nH]c2ccccc12)NC(=O)[C@@H]1CNCC[C@H]1N", "n"],
  ["CC(=O)[C@@H]1[C@H]2[C@@H](C(=O)[C@H]3OC[C@H]2O3)[C@@H]2C=Cc3ccccc3N12", "y"],
  ["CC(C)C[C@@H](CC(=O)N[C@@H](CCC(=O)O)CC(=O)O)NC(=O)[C@@H]1CCCC[C@H]1NC(=O)C[C@H](CCCN)NC(=O)C[C@H](Cc1ccccc1)NC(=O)[C@@H]1CNCC[C@H]1N", "n"],
  ["COC(=O)[C@@]1(Cc2ccc(F)cc2)[C@H]2c3cc(C(=O)N4CCCC4)n(Cc4ccc(C)o4)c3C[C@H]2CN1C(=O)c1ccccc1", "y"],
  ["CC(C)[C@@H](CC(=O)N[C@@H]1CCNC[C@H]1C(=O)N[C@H](CC(=O)N[C@@H](CCC(=O)O)CC(=O)O)Cc1c[nH]c2ccccc12)NC(=O)C[C@H](Cc1ccccc1)NC(=O)[C@@H]1CCCC[C@H]1N", "n"],
  ["CC(C)C[C@@H](CC(=O)N[C@@H](CCC(=O)O)CC(=O)O)NC(=O)[C@@H]1CCCC[C@H]1NC(=O)C[C@H](CCCN)NC(=O)C[C@H](Cc1c[nH]c2ccccc12)NC(=O)[C@@H]1CCCC[C@H]1N", "n"],
  ["CCC/C=C(\\CCC)C(NC(=O)c1cccs1)c1ccc(C(=O)OC)cc1 (stereo not given)", "y"],
  ["CC(C)C[C@@H](CC(=O)N[C@@H](CCC(=O)O)CC(=O)O)NC(=O)[C@@H]1CCCC[C@H]1NC(=O)C[C@@H](NC(=O)C[C@H](Cc1c[nH]c2ccccc12)NC(=O)[C@@H]1CCCC[C@H]1N)C(C)C", "n"]
]}

What is the recorded call for this molecule in the test? CC(C)C[C@@H](CC(=O)N[C@H](CC(=O)N[C@@H]1CCCC[C@H]1C(=O)N[C@H](CC(=O)N[C@@H](CCC(=O)O)CC(=O)O)Cc1ccccc1)C(C)C)NC(=O)[C@@H]1CCCC[C@H]1N
n

What is the recorded call for this molecule in the test? Cc1c(-c2ccccc2)oc2cc(O)ccc2c1=O
y

What is the recorded call for this molecule in the test? Cc1ccc2oc(-c3ccccc3)c(O)c(=O)c2c1
n

What is the recorded call for this molecule in the test? COc1ccccc1-c1oc2ccccc2c(=O)c1OC
y

What is the recorded call for this molecule in the test? CC(C)[C@@H](CC(=O)N[C@@H]1CCNC[C@H]1C(=O)N[C@H](CC(=O)N[C@@H](CCC(=O)O)CC(=O)O)Cc1c[nH]c2ccccc12)NC(=O)C[C@H](Cc1c[nH]c2ccccc12)NC(=O)[C@@H]1CNCC[C@H]1N
n

What is the recorded call for this molecule in the test? O=c1c2ccccc2oc2cc(O)c([C@@H]3COC[C@@H](CO)[C@@H](O)[C@@H](O)[C@H]3O)c(O)c12
n

What is the recorded call for this molecule in the test? Nc1ccccc1C(=O)C[C@@H](N)C(=O)O
n

What is the recorded call for this molecule in the test? CCCC/C=C/C(NC(=O)Oc1cccc(C(F)(F)F)c1)c1ccccc1 (stereo not given)
y

---

- ASSAY: qHTS for Inhibitors of Plasmodium falciparum (HB3) proliferation (AID 504318); note: nearly all actives have a fitted effect of over 60% in size
- REPORTED CONDITIONS: P. falciparum HB3 in erythrocytes, SYBR Green DNA, 72 h; series mostly up to 7.21 µM
Inconclusive results are not listed. Activity calls are given as the source filed them. The call rests on the fitted dose curve; in most records, active means well fitted inhibition curve with a large enough effect; inconclusive means small, poorly fitted or top-dose-only effect; inactive means flat fitted curve, though single readings scatter.
Please reply with one of these outcomes: active, inactive

{"columns": ["COMPOUND", "CLASS NAME"],
 "data": [
  ["COC(=O)CCC(=O)OC1(C)C(=O)C=C2C=C(C3CC3)N(C3CCCC3)C=C2C1=O (configuration not stated)", "inactive"],
  ["FC(F)(F)c1cc(NC(=S)NC23CC4CC(CC(C4)C2)C3)cc(C(F)(F)F)c1", "active"],
  ["COC(=O)N1C2=C(c3ccccc3[C@@H]1CC(=O)Nc1ccc3cc4ccccc4cc3c1)[C@@H]1C(=O)N(c3ccccc3)C(=O)[C@@H]1[C@H](C)C2", "active"]
]}

What is the recorded call for this compound in the test? CCOC(=O)CN1C(=O)N[C@@H](c2cccc(F)c2)C(C(C)=O)=C1C
inactive

What is the recorded call for this compound in the test? COc1ccc(N2C=C3C(=O)C(C)(OC(=O)CCc4ccccc4)C(=O)C=C3C=C2c2ccc(C#N)cc2)cc1 (configuration not stated)
inactive

---

- TARGET OR SYSTEM: Cytochrome P450 1A2 (Homo sapiens)
- ASSAY: p450-cyp1a2 (AID 410)
- REPORTED CONDITIONS: recombinant CYP1A2, luciferin-ME demethylation, luminescence; series mostly up to 57 µM
Inconclusive results are not listed. Calls of active or inactive are those of the source. Calls come from the whole dose curve.
Please reply with one of these outcomes: active, inactive

Reference set (4 entries):
{"columns": ["COMPOUND", "CLASS NAME"],
 "data": [
  ["CCCC1(C(=O)OC)C=C2C(=C(C)C(=O)C2C)CN1 (configuration not stated)", "inactive"],
  ["CCc1cccc2c(-c3ccccc3)c3c(nc12)OCC3", "active"],
  ["CC[C@@H]1OC(=O)[C@@H](C)[C@H](O[C@@H]2C[C@@](C)(OC)[C@@H](O)[C@H](C)O2)[C@H](C)[C@H](O[C@@H]2O[C@@H](C)C[C@@H](N(C)C)[C@H]2O)[C@@](C)(O)C[C@H](C)C(=O)[C@@H](C)[C@H](O)[C@@]1(C)O", "inactive"],
  ["C#CCN1C(C)=C(C(=O)OC)[C@@H](c2cccc([N+](=O)[O-])c2)C(C(=O)OCC)=C1C", "active"]
]}

What is the recorded call for this compound in the test? CC(C)[C@@H](CC(=O)N[C@@H]1CCCC[C@H]1C(=O)N[C@H](CC(=O)N[C@@H](CCC(=O)O)CC(=O)O)Cc1c[nH]c2ccccc12)NC(=O)C[C@H](CO)NC(=O)[C@@H]1CNCC[C@H]1N
inactive

What is the recorded call for this compound in the test? CC(C)C[C@@H](CC(=O)N[C@H](CC(=O)N[C@@H]1CCNC[C@H]1C(=O)N[C@H](CC(=O)N[C@@H](CCC(=O)O)CC(=O)O)CC(C)C)C(C)C)NC(=O)[C@@H]1CCCC[C@H]1N
inactive

What is the recorded call for this compound in the test? COC(=O)C1(Cc2ccccc2)C=C2C(=C(C)C(=O)C2C)CN1 (configuration not stated)
active
